# test_system: Human Androgen Receptor (Homo sapiens, UniProt P10275)
# Sequence (P10275 whole entry): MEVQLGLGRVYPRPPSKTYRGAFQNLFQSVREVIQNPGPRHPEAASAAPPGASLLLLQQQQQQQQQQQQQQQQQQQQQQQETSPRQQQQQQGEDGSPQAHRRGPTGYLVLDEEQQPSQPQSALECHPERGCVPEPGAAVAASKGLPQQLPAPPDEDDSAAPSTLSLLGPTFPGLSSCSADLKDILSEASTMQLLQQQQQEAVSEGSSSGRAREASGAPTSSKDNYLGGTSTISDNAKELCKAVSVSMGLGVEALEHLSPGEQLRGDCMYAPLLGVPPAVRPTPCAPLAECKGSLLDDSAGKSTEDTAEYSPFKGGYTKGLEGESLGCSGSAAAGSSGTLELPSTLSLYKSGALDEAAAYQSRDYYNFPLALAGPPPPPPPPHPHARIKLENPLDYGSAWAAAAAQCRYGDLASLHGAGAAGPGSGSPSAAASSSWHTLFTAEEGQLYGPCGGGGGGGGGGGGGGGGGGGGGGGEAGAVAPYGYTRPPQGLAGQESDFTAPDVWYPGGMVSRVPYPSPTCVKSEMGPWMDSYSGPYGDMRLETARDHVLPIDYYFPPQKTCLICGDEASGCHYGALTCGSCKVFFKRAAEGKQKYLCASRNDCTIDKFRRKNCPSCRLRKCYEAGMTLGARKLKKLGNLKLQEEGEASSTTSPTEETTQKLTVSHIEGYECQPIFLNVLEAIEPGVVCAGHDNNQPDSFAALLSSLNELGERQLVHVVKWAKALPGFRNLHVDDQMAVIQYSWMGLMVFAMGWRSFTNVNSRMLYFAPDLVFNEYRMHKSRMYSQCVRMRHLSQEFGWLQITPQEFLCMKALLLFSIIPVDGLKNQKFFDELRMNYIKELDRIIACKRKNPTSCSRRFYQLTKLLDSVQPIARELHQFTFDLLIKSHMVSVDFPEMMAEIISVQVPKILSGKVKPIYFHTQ
# test_method_notes: Androgen receptor binding assay (hydroxylapatite, [3H]R1881, cytosol of transfected HEK-293 cells)
# condition_info: % RBA=100×IC50 R1881/IC50 compound, transfected cells
readout_kind: Androgen Receptor Binding (%) Human RBA R1881 = 100
Unit % implied. Number only.

>  <compound>
CCC(CC)NC(CC)c1cccc(OCC[C@]23CCC4C(CCC5=CC(=O)CC[C@@]54C)C2CC[C@@H]3O)c1 (stereo partly drawn)

>  <obs_value>
59

$$$$

Now, please, on to the next compound.
// Androgen Receptor Binding (%) Human RBA R1881 = 100 lookup, compound = CCCC(NC(CC)CC)c1cccc(OCC[C@]23CCC4C(CCC5CCOC[C@@]54C)C2CCC3O)c1 (stereo partly drawn) , result: 44.4

Where these numbers come from: patent US9090651B2
